Molecular target: AKT1 WT (Homo sapiens)
Sequence (P31749 whole entry): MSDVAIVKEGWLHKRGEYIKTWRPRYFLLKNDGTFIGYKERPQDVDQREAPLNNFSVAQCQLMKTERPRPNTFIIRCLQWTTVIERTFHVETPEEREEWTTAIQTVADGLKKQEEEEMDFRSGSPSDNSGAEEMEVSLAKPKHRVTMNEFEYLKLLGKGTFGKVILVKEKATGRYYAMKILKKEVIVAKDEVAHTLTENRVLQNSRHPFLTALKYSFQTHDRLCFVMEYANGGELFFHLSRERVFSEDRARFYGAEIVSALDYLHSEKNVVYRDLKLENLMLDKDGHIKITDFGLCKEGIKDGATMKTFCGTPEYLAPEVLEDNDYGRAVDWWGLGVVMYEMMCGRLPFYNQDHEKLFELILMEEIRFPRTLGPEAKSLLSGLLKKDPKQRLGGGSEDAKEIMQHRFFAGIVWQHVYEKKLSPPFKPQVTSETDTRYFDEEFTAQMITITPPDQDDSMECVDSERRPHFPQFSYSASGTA
Assay: Live cell target engagement by NanoBRET competitive probe displacement, AKT1 WT
Conditions: transfected HEK293 cells, 2 h at 37° C., read-out: AKT1 WT IC50: GeoMean IC50
Description: Determining live cell AKT1 E17K, AKT1 WT, and AKT2 target engagement by NanoBRET competitive probe displacement. Live cell target engagement assays were performed as described (Vasta, J. D. et al. Cell Chem Biol 2018, 25(11), 206-214). […] After incubation for 2 h at 37° C., luciferase substrate and extracellular luciferase inhibitor were added to all wells, and luminescent intensity at 460 nm and 600 nm were measured on a multimode plate-reader. […]
Recorded IC50 values for a group of molecules are listed next.

Consider the worked cases shown below.
{"Molecule": "CCc1ccc2nc(-c3cccnc3N)n(-c3ccc4c(c3)CC[C@@H]4NC(=O)c3ccc(O)c(C=O)c3)c2n1", "Test Target": "AKT1 WT (Homo sapiens)", "Observable": "IC50", "Recorded Result": "100 to 2000 nM"}
{"Molecule": "Nc1ncccc1-c1nc2ccc(OC3CC3)nc2n1-c1ccc2c(c1)CC[C@@H]2NC(=O)c1ccc(O)c(C=O)c1", "Test Target": "AKT1 WT (Homo sapiens)", "Observable": "IC50", "Recorded Result": "100 to 2000 nM"}
{"Molecule": "Nc1ncccc1-c1nc2ccc(-c3ccccc3)nc2n1-c1ccc2c(c1)CC[C@@H]2NC(=O)c1ccc(O)c(C=O)n1", "Test Target": "AKT1 WT (Homo sapiens)", "Observable": "IC50", "Recorded Result": "10 to 100 nM"}
{"Molecule": "Nc1ncccc1-c1nc2ccc(-c3nccs3)nc2n1-c1ccc2c(c1)CC[C@@H]2NC(=O)c1cc(C=O)c(O)cc1F", "Test Target": "AKT1 WT (Homo sapiens)", "Observable": "IC50", "Recorded Result": "10 to 100 nM"}
{"Molecule": "Nc1ncccc1-c1nc2ccc(-c3ccccc3)nc2n1-c1ccc2c(c1)CC[C@@H]2NCCc1ccc(C=O)c(O)c1", "Test Target": "AKT1 WT (Homo sapiens)", "Observable": "IC50", "Recorded Result": "100 to 2000 nM"}
{"Molecule": "Nc1ncccc1-c1nc2ccc(-c3ccccc3)nc2n1-c1ccc2c(c1)CCC2NC(=O)Cc1ccc(C=O)c(O)c1 (stereo not shown)", "Test Target": "AKT1 WT (Homo sapiens)", "Observable": "IC50", "Recorded Result": "10 to 100 nM"}
{"Molecule": "Cc1cc(-n2cccn2)nc2c1nc(-c1cccnc1N)n2-c1ccc2c(c1)CC[C@@H]2NC(=O)c1ccc(O)c(C=O)c1", "Test Target": "AKT1 WT (Homo sapiens)", "Observable": "IC50", "Recorded Result": "10 to 100 nM"}
{"Molecule": "Nc1ncccc1-c1nc2ccc(-c3ccccc3)nc2n1-c1ccc2c(c1)CC[C@@H]2NC(=O)c1ccc(NC(=O)N2CCOCC2)c(C=O)c1", "Test Target": "AKT1 WT (Homo sapiens)", "Observable": "IC50", "Recorded Result": "10 to 100 nM"}
{"Molecule": "Nc1ncccc1-c1nc2ccc(-c3ccn(C4CC4)n3)nc2n1-c1ccc2c(c1)CC[C@@H]2NC(=O)c1cc(C=O)c(O)cc1F", "Test Target": "AKT1 WT (Homo sapiens)", "Observable": "IC50", "Recorded Result": "10 to 100 nM"}
{"Molecule": "C#Cc1c(C(=O)N[C@H]2CCc3cc(-n4c(-c5cccnc5N)nc5ccc(-n6cccn6)nc54)ccc32)ccc(O)c1C=O", "Test Target": "AKT1 WT (Homo sapiens)", "Observable": "IC50", "Recorded Result": "10 to 100 nM"}

Given the molecule Nc1ncccc1-c1nc2ccc(-c3ccccc3)nc2n1-c1ccc2c(c1)CC[C@@H]2NC(=O)c1ccc(C=O)c(O)c1F , what is its reported IC50?
10 to 100 nM

Record request: IC50 value, item Nc1ncccc1-c1nc2ccc(F)nc2n1-c1ccc2c(c1)CC[C@@H]2NC(=O)c1ccc(O)c(C=O)c1
100 to 2000 nM

What value of IC50 has been reported for the following molecule? Cc1cnc(-c2ccc3nc(-c4cccnc4N)n(-c4ccc5c(c4)CC[C@@H]5NC(=O)c4ccc(O)c(C=O)c4)c3n2)o1
10 to 100 nM
